tested on: HepG2; assay: Cytotoxicity against human HepG2 cells after 24 hrs by MTT assay; type: functional, cell-based; conditions: HepG2, 24 h
What pIC50 was measured for each of the following?
The read-out pIC50 is expressed as -log10 of concentration in moles per litre.

Entry CC(=O)O[C@H]1CC(C)(C)C[C@@H]2[C@]13CO[C@@]21CC[C@@H]2[C@@]4(C)CC[C@H](O[C@@H]5OC[C@H](O[C@@H]6O[C@H](CO)[C@@H](O)[C@H](O)[C@H]6O)[C@H](O)[C@H]5O[C@@H]5O[C@H](CO)[C@@H](O)[C@H](O)[C@H]5O[C@@H]5OC[C@@H](O)[C@H](O)[C@H]5O)C(C)(C)[C@@H]4CC[C@@]2(C)[C@]1(C)C[C@H]3O — recorded pIC50 = 5.31

Entry CC1(C)CC[C@]23CO[C@@]4(CC[C@@H]5[C@@]6(C)CC[C@H](O[C@@H]7OC[C@H](O[C@@H]8O[C@H](CO)[C@@H](O)[C@H](O)[C@H]8O[C@@H]8OC[C@@H](O)[C@H](O)[C@H]8O)[C@H](O)[C@H]7O)[C@@](C)(CO)[C@@H]6CC[C@@]5(C)[C@]4(C)CC2=O)[C@@H]3C1 — recorded pIC50 = 5.05

Entry CC1(C)CC[C@]23CO[C@@]4(CC[C@@H]5[C@@]6(C)CC[C@H](O[C@@H]7OC[C@H](O)[C@H](O)[C@H]7O)[C@@](C)(CO)[C@@H]6CC[C@@]5(C)[C@]4(C)CC2=O)[C@@H]3C1 — recorded pIC50 = 4.26

Entry CC1(C)CC[C@]23CO[C@@]4(CC[C@@H]5[C@@]6(C)CC[C@H](O[C@@H]7OC[C@H](O[C@@H]8O[C@H](CO)[C@@H](O)[C@H](O)[C@H]8O)[C@H](O)[C@H]7O)[C@@](C)(CO)[C@@H]6CC[C@@]5(C)[C@]4(C)CC2=O)[C@@H]3C1 — recorded pIC50 = 4.79
